The measured values listed here are drawn from patent US4568490A.

Kindly state Grade: total score of pulmonary fibrosis/total number of samples for each of the entries shown.
test system: ICR mice; experiment: Pulmonary toxicity (pulmonary fibrosis) in mice, intratracheal instillation; type: in vivo; settings: 16 μg/50 μl/mouse intratracheally; sacrificed 4 weeks after instillation; score 0-6 points

Some solved cases for reference:
Cc1c(N)nc(C(CC(N)=O)NCC(N)C(N)=O)nc1C(=O)NC(C(=O)NC(C)C(O)C(C)C(=O)NC(C(=O)NCCc1nc(-c2nc(C(=O)NCCCN(C)CCCNCc3ccc(Cl)c(Cl)c3)cs2)cs1)C(C)O)C(OC1OC(CO)C(O)C(O)C1OC1OC(CO)C(O)C(OC(N)=O)C1O)c1cnc[nH]1 (stereo not drawn): 4/30
Cc1c(N)nc(C(CC(N)=O)NCC(N)C(N)=O)nc1C(=O)NC(C(=O)NC(C)C(O)C(C)C(=O)NC(C(=O)NCCc1nc(-c2nc(C(=O)NCCCN(C)CCCN(Cc3ccccc3)Cc3ccccc3)cs2)cs1)C(C)O)C(OC1OC(CO)C(O)C(O)C1OC1OC(CO)C(O)C(OC(N)=O)C1O)c1cnc[nH]1 (stereo not drawn): 2/27

Then there is this compound:
Look up Grade: total score of pulmonary fibrosis/total number of samples of COc1ccc(CNCCCN(C)CCCNC(=O)c2csc(-c3csc(CCNC(=O)C(NC(=O)C(C)C(O)C(C)NC(=O)C(NC(=O)c4nc(C(CC(N)=O)NCC(N)C(N)=O)nc(N)c4C)C(OC4OC(CO)C(O)C(O)C4OC4OC(CO)C(O)C(OC(N)=O)C4O)c4cnc[nH]4)C(C)O)n3)n2)c(OC)c1 (stereo not drawn) and report it. 4/27
